tested.on: CD3ε homodimer protein (human, UniProt P07766 23-126, limits assumed)
Sequence (P07766 23-126 limits assumed): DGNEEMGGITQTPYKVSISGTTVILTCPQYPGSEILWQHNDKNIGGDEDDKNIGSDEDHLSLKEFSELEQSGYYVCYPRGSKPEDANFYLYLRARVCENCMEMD
assay: SPR, immobilized CD3ε homodimer;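 further: biacore T200 surface plasmon resonance at 25 °C, antibody variants flowed as analytes over amine-coupled CD3ε homodimer on a CM4 chip, variant binding amount divided by that of GLS3000 antibody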
measurement.kind: ratio of amounts bound (vs GLS3000)

The measured ratio of amounts bound (vs GLS3000) associated with GLS3000 H27dD (antibody, name in Kabat numbering, V domains shown, one-arm format as m2) VH: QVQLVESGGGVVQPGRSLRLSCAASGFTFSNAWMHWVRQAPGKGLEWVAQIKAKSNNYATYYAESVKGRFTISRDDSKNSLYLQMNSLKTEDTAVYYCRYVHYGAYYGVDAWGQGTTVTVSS VL: DIVMTQSPLSLPVTPGEPASISCRSSQSLVDSNRNTYLHWYQQKPGQAPRLLIYKVSNRFSGVPDRFSGSGSGTDFTLKISRVEAEDVGVYYCGQGTQVPYTFGQGTKLEIK reads 0.22

The measured ratio of amounts bound (vs GLS3000) associated with GLS3000 H27dG (antibody, name in Kabat numbering, V domains shown, one-arm format as m2) VH: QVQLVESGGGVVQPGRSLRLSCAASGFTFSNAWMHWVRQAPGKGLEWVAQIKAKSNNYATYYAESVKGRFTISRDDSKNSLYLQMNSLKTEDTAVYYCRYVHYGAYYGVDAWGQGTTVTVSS VL: DIVMTQSPLSLPVTPGEPASISCRSSQSLVGSNRNTYLHWYQQKPGQAPRLLIYKVSNRFSGVPDRFSGSGSGTDFTLKISRVEAEDVGVYYCGQGTQVPYTFGQGTKLEIK reads 0.3

The measured ratio of amounts bound (vs GLS3000) associated with GLS3000 H27dS (antibody, name in Kabat numbering, V domains shown, one-arm format as m2) VH: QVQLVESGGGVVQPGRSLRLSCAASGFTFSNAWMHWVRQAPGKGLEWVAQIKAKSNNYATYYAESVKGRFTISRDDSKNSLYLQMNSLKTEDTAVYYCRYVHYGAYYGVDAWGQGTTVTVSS VL: DIVMTQSPLSLPVTPGEPASISCRSSQSLVSSNRNTYLHWYQQKPGQAPRLLIYKVSNRFSGVPDRFSGSGSGTDFTLKISRVEAEDVGVYYCGQGTQVPYTFGQGTKLEIK reads 0.32
